Listed next: entries and their corresponding zone of inhibition at 50 µg/mL.
System: Staphylococcus aureus
ASSAY: Antimicrobial activity against Staphylococcus aureus at 50 ug/ml by agar plate diffusion technique
Format: functional
CONDITION_SUMMARY: read-out: IZ
Give a bare numeral; the unit mm is implied.

Reference set, count: 3
>>> measured_value("CCOC(=O)c1cnn(-c2nc(-c3ccc(N(C)C)cc3)c(C#N)c(=O)n2C)c1N")
13.5
>>> measured_value("Cn1c(NN)nc(-c2cccs2)c(C#N)c1=O")
10.6
>>> measured_value("CCOC(=O)c1cnn(-c2nc(-c3ccc(OC)cc3)c(C#N)c(=O)n2C)c1N")
15.1

Continue with the next molecule.
Please look at COc1cccc(-c2nc(NN)n(C)c(=O)c2C#N)c1OC and tell me its recorded zone of inhibition at 50 µg/mL on Staphylococcus aureus.
11.2

----------
Tested on: Staphylococcus aureus
ASSAY: Antimicrobial activity against Staphylococcus aureus at 25 ug/ml by agar plate diffusion technique
Type: functional
CONDITION_SUMMARY: read-out: IZ
// label = yes (1) if zone of inhibition at 25 µg/mL is not less than 10 mm, otherwise no (0)

Past entries and their recorded results:
>>> class_name("Cn1c(NN)nc(-c2ccco2)c(C#N)c1=O")
"no (0)"
>>> class_name("CCOC(=O)c1cnn(-c2nc(-c3ccccc3O)c(C#N)c(=O)n2C)c1N")
"yes (1)"
>>> class_name("CCOC(=O)c1cnn(-c2nc(-c3ccccc3Cl)c(C#N)c(=O)n2C)c1N")
"yes (1)"
>>> class_name("CSc1nc(-c2cccs2)c(C#N)c(=O)n1C")
"no (0)"

Is it the case that CCOC(=O)c1cnn(-c2nc(-c3cccs3)c(C#N)c(=O)n2C)c1N has zone of inhibition at 25 µg/mL reaching or exceeding 10 mm?
yes (1)

Is it the case that CSc1nc(-c2ccccc2F)c(C#N)c(=O)n1C has zone of inhibition at 25 µg/mL reaching or exceeding 10 mm?
yes (1)

Form field: zone of inhibition at 25 µg/mL at least 10 mm? Entry: CSc1nc(-c2ccco2)c(C#N)c(=O)n1C
no (0)

Is zone of inhibition at 25 µg/mL for CSc1nc(-c2ccccc2O)c(C#N)c(=O)n1C at or above 10 mm?
no (0)

Does CCOC(=O)c1cnn(-c2nc(-c3ccccc3F)c(C#N)c(=O)n2C)c1N have a reported zone of inhibition at 25 µg/mL of at least 10 mm?
yes (1)

----------
System: Candida albicans
ASSAY: Antimicrobial activity against Candida albicans at 100 ug/ml by paper disc method
Assay type: functional
CONDITION_SUMMARY: read-out: IZ
zone of inhibition at 100 µg/mL values for the compounds below.
Give the value in mm but do not write mm after it.

These solved cases illustrate the format of a correct answer.
>>> measured_value("Cn1c(NN)nc(-c2ccco2)c(C#N)c1=O")
16
>>> measured_value("COc1cccc(-c2nc(SC)n(C)c(=O)c2C#N)c1OC")
19.5
>>> measured_value("Cn1c(NN)nc(-c2ccccc2O)c(C#N)c1=O")
17.7
>>> measured_value("CSc1nc(-c2ccccc2O)c(C#N)c(=O)n1C")
20
>>> measured_value("CCOC(=O)c1cnn(-c2nc(-c3ccc(OC)cc3)c(C#N)c(=O)n2C)c1N")
19.8

Please give the documented zone of inhibition at 100 µg/mL of CN(C)c1ccc(-c2nc(NN)n(C)c(=O)c2C#N)cc1
15.3

Name the recorded zone of inhibition at 100 µg/mL of the item CCOC(=O)c1cnn(-c2nc(-c3cccs3)c(C#N)c(=O)n2C)c1N in your answer.
21.5

Give me measured zone of inhibition at 100 µg/mL, please, for this compound: CSc1nc(-c2ccco2)c(C#N)c(=O)n1C
18.4

----------
Listing of entries alongside the reported zone of inhibition at 25 µg/mL.
Test system: Staphylococcus aureus
ASSAY: Antimicrobial activity against Staphylococcus aureus at 25 ug/ml by agar plate diffusion technique
Type: functional
CONDITION_SUMMARY: read-out: IZ
Hi! Could you send only the number? It should be in mm, unit omitted.

>>> measured_value("CSc1nc(-c2ccc(Cl)cc2)c(C#N)c(=O)n1C")
9.68
>>> measured_value("COc1ccc(-c2nc(SC)n(C)c(=O)c2C#N)cc1")
8.76
>>> measured_value("COc1cccc(-c2nc(NN)n(C)c(=O)c2C#N)c1OC")
8.72

Given Cn1c(NN)nc(-c2ccccc2F)c(C#N)c1=O , respond with its zone of inhibition at 25 µg/mL.
13.6

Give me measured zone of inhibition at 25 µg/mL, please, for this compound: CN[C@@H]1[C@H](O[C@H]2[C@H](O[C@H]3[C@H](O)[C@@H](O)[C@H](N=C(N)N)[C@@H](O)[C@@H]3N=C(N)N)O[C@@H](C)[C@]2(O)C=O)O[C@@H](CO)[C@H](O)[C@H]1O [STREPTOMYCIN]
15.4

Report zone of inhibition at 25 µg/mL for Cn1c(NN)nc(-c2ccccc2Cl)c(C#N)c1=O
12.8

Respond only with zone of inhibition at 25 µg/mL recorded for CSc1nc(-c2ccc(N(C)C)cc2)c(C#N)c(=O)n1C
6.38

Specify reported zone of inhibition at 25 µg/mL for the compound shown: CCOC(=O)c1cnn(-c2nc(-c3ccc(Cl)cc3)c(C#N)c(=O)n2C)c1N
13.1

Tell me its zone of inhibition at 25 µg/mL given CSc1nc(-c2ccccc2Cl)c(C#N)c(=O)n1C as the entry.
9.4

----------
ASSAY: Antioxidant activity assessed as hydrogen peroxide scavenging activity after 10 mins
Format: functional
ATTRIBUTE_MEASURED: IC50
Express your answer as a number followed by its unit.

>>> measured_value("CCOC(=O)c1cnn(-c2nc(-c3cccs3)c(C#N)c(=O)n2C)c1N")
"109 µg/mL"

Name the recorded IC50 of the item CSc1nc(-c2ccccc2F)c(C#N)c(=O)n1C in your answer.
63 µg/mL

Return reported IC50. Input compound: CSc1nc(-c2ccc(N(C)C)cc2)c(C#N)c(=O)n1C
84 µg/mL

Identify measured IC50 associated with Cn1c(NN)nc(-c2cccc(O)c2O)c(C#N)c1=O
29 µg/mL

Answer with reported IC50 of CSc1nc(-c2ccccc2Cl)c(C#N)c(=O)n1C
67 µg/mL

State its IC50: CCOC(=O)c1cnn(-c2nc(-c3ccc(N(C)C)cc3)c(C#N)c(=O)n2C)c1N
119 µg/mL

----------
zone of inhibition at 50 µg/mL listing for selected compounds.
Tested on: Staphylococcus aureus
ASSAY: Antimicrobial activity against Staphylococcus aureus at 50 ug/ml by agar plate diffusion technique
Assay type: functional
CONDITION_SUMMARY: read-out: IZ
Please state the figure in mm; there is no need to write the unit.

Sample records with zone of inhibition at 50 µg/mL:
>>> measured_value("CCOC(=O)c1cnn(-c2nc(-c3ccccc3F)c(C#N)c(=O)n2C)c1N")
20.8
>>> measured_value("CCOC(=O)c1cnn(-c2nc(-c3cccc(OC)c3OC)c(C#N)c(=O)n2C)c1N")
14.1
>>> measured_value("COc1ccc(-c2nc(SC)n(C)c(=O)c2C#N)cc1")
12.8
>>> measured_value("CCOC(=O)c1cnn(-c2nc(-c3cccc(O)c3O)c(C#N)c(=O)n2C)c1N")
16.1
>>> measured_value("CSc1nc(-c2ccccc2O)c(C#N)c(=O)n1C")
9.33

State its zone of inhibition at 50 µg/mL: Cn1c(NN)nc(-c2ccccc2O)c(C#N)c1=O
12.2

----------
System: Metaphire posthuma
ASSAY: Anthelmintic activity against Pheretima posthuma assessed as time taken for complete parasite paralysis at 0.5% w/v
Type: functional
ATTRIBUTE_MEASURED: Time (min)
Report as a plain number; the unit min is understood.

>>> measured_value("CCOC(=O)c1cnn(-c2nc(-c3ccccc3O)c(C#N)c(=O)n2C)c1N")
38.52
>>> measured_value("Cn1c(NN)nc(-c2ccccc2O)c(C#N)c1=O")
30.13
>>> measured_value("Cn1c(NN)nc(-c2ccco2)c(C#N)c1=O")
37.52
>>> measured_value("CCCSc1ccc2[nH]c(NC(=O)OC)nc2c1")
30.57
>>> measured_value("CSc1nc(-c2cccc(O)c2O)c(C#N)c(=O)n1C")
50.1

Identify measured Time associated with COc1ccc(-c2nc(NN)n(C)c(=O)c2C#N)cc1
42.6

----------
Tested on: Metaphire posthuma
ASSAY: Anthelmintic activity against Pheretima posthuma assessed as time taken for complete parasite paralysis at 0.5% w/v
Type: functional
Here, each record is paired with measured Time data.
API: value field is a number in min; no unit string.

>>> measured_value("CCOC(=O)c1cnn(-c2nc(-c3ccccc3F)c(C#N)c(=O)n2C)c1N")
48.38
>>> measured_value("COc1ccc(-c2nc(SC)n(C)c(=O)c2C#N)cc1")
42.65

Now turn to the next compound.
Read off the recorded Time for CSc1nc(-c2ccccc2O)c(C#N)c(=O)n1C
35.14
